Tested on: N87 (human gastric cancer cell NCI-N87)
Assay: In vitro proliferation inhibition assay of cell lines (CellTiter-Glo), N87
Format: cell-based
Conditions: N87 cells, 72 hours
reported-endpoint: log10 of IC50 (log10 of the value in nM)

>>> assay_value("Cc1cc(Nc2c(C#N)cnc3ccc(NC(=O)/C=C/[C@H]4CCCN4)cc23)ccc1Oc1cc2nncn2cn1")
1.97
>>> assay_value("CCOc1cc2ncnc(Nc3ccc(Oc4ccn5ncnc5c4)c(C)c3)c2cc1NC(=O)/C(F)=C/[C@@H]1CCCN1C")
0.58
>>> assay_value("Cc1cc(Nc2ncnc3ccc(NC(=O)/C=C/[C@H]4CCCN4C)cc23)ccc1Oc1ccc2nccn2c1")
0.47
>>> assay_value("CCOc1cc2ncc(C#N)c(Nc3ccc(Oc4cc5nncn5cn4)c(C)c3)c2cc1NC(=O)/C=C/[C@H]1CCCN1C")
0.51
>>> assay_value("CCOc1cc2ncc(C#N)c(Nc3ccc(Oc4cc5nncn5cn4)c(C)c3)c2cc1NC(=O)/C=C/[C@H]1CCCN1")
0.62
>>> assay_value("Cc1cc(Nc2ncnc3ccc(NC(=O)/C=C/[C@@H]4CCCN4C)cc23)ccc1Oc1cc2nncn2cn1")
1.00
>>> assay_value("CCOc1cc2ncc(C#N)c(Nc3ccc(OCc4ccccn4)c(Cl)c3)c2cc1NC(=O)/C=C/CN(C)C [drawing 240, reference compound]")
-0.09
>>> assay_value("Cc1cc(Nc2ncnc3ccc(NC(=O)/C=C/[C@H]4CCCN4C)cc23)ccc1Oc1cnn2cnnc2c1")
1.78
>>> assay_value("C=CC(=O)N1CCC(c2ccc3ncnc(Nc4ccc(Oc5cc6nncn6cn5)c(C)c4)c3c2)CC1")
0.76
>>> assay_value("Cc1cc(Nc2ncnc3ccc(/C=C/C(=O)NC4CC4)cc23)ccc1Oc1cc2nncn2cn1")
2.84
>>> assay_value("C=CC(=O)N[C@@H]1CCCN(c2ccc3ncnc(Nc4ccc(Oc5cc6nncn6cn5)c(C)c4)c3c2)C1")
1.19
>>> assay_value("CCOc1cc2ncnc(Nc3ccc(Oc4cc5nncn5cn4)c(C)c3)c2cc1NC(=O)/C=C/[C@H]1CCCN1C")
0.20
>>> assay_value("Cc1cc(Nc2ncnc3ccc(NC(=O)/C=C/[C@H]4CCCN4)cc23)ccc1Oc1ccn2ncnc2c1")
1.45
>>> assay_value("Cc1cc(Nc2ncnc3ccc(NC(=O)/C=C/[C@H]4CCCN4C)cc23)ccc1Oc1ccn2cnnc2c1")
1.83
>>> assay_value("Cc1cc(Nc2ncnc3ccc(NC(=O)/C(F)=C/[C@H]4CCCN4C)cc23)ccc1Oc1cc2nncn2cn1")
0.11
>>> assay_value("Cc1cc(Nc2ncnc3ccc(NC(=O)/C=C/[C@H]4CCCN4C)cc23)ccc1Oc1ccc2nccn2n1")
0.55
>>> assay_value("C=C(F)C(=O)N1CC=C(c2ccc3ncnc(Nc4ccc(Oc5cc6nncn6cn5)c(C)c4)c3c2)CC1")
1.38
>>> assay_value("C=CC(=O)N1CCC[C@@H](Nc2ccc3ncnc(Nc4ccc(Oc5cc6nncn6cn5)c(C)c4)c3c2)C1")
1.82
